- Tested on: VDR:RXRa (NR concentration 270 nM, RXRa partner concentration 90 nM)
- protocolSummary: PBM binding z-score (relative to random genomic background probes); higher = stronger binding; sequences stand for … in GC…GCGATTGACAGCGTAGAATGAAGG
resultType: PBM binding z-score

CATAGAGGGTCAGCTAGGCCAGAGTAGGGACGGC; 2.69
CAAACTAGGTCACATAGGTCAAAGTCCGTGCGTA; 6.27
CTACCAAGGTGAAGAAGGTCGTTGATTACTATTC; 4.25
TGTCAAAGTGCAAAGGTAACGTAAGTATCCACAC; 1.59
GCTGCTAGGTCAACTGATGGTCTGCTAAAGCTCG; 1.29
GCGACTGGGGCAAAGCGGGTTACCATAAGGTTGG; 0.145
GATACAGGGTCAGCTAGAGGCCTGAGTATGGAAA; 2.2
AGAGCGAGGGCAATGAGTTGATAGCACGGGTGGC; 4.97

Input line: Using known records, supply PBM binding z-score for AGAATGAGGTTATTAAGATCATGGAATTGCGGTC
Output line: 3.3

Input line: Using known records, supply PBM binding z-score for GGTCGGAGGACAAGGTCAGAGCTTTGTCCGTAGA
Output line: 1.78

Input line: Using known records, supply PBM binding z-score for CCTGACGGGTCACTGACAGGTTATAGCATTTGGA
Output line: 2.94

Input line: Using known records, supply PBM binding z-score for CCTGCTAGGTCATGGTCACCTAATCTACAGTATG
Output line: 2.03

Input line: Using known records, supply PBM binding z-score for TAGCCTAGGTCATCCAGGGGCCAGTATAGAAAGC
Output line: 3.1

Input line: Using known records, supply PBM binding z-score for CAAACTAGGTCAAGAGGTCCAAGTCCGCTTCCCG
Output line: 4.71

Input line: Using known records, supply PBM binding z-score for TCTTGTAGATCAACAGGAGGTTACGAAAGATCGA
Output line: 0.945

Input line: Using known records, supply PBM binding z-score for CGACCAAGGTCAGAGAGGTCAGTGAATGCCGAGT
Output line: 7.47

Input line: Using known records, supply PBM binding z-score for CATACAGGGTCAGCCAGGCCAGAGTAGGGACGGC
Output line: 4.58

Input line: Using known records, supply PBM binding z-score for CCGAATGGGGCAGAAAGGTTACCATACCATCCGG
Output line: 1.33

Input line: Using known records, supply PBM binding z-score for CCGACTGGGGCAAAGGTGACCATACTCAGTACGA
Output line: 0.389

Input line: Using known records, supply PBM binding z-score for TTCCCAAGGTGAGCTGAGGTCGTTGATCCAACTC
Output line: 4.13

Input line: Using known records, supply PBM binding z-score for AGAACGAGGGCAATGATTTGATAGCACGGGTGGC
Output line: 0.334

Input line: Using known records, supply PBM binding z-score for ACATACGGGTCAACGAGGTTATAGCACGCGTATA
Output line: 7.57

Input line: Using known records, supply PBM binding z-score for TCGAGTAGGTTAGGGGCAATCAGAATGGCGTCGA
Output line: 0.363

Input line: Using known records, supply PBM binding z-score for TCATATAGGTAACTGCTAGGTGAAAGTCCGATCT
Output line: 0.632

Input line: Using known records, supply PBM binding z-score for CGTCCAAGGTCAATGCTAGGTCAGGGAAAGCATT
Output line: 4.75

Input line: Using known records, supply PBM binding z-score for CGAGACAGGTGAGAAGGTAACTCAGCCTCGATTA
Output line: -0.375
